Molecular target: T1, cynomolgus/rhesus macaque CD47 protein, His Tag (ACRObiosystems, Cat. No. CD7-C52H1) (cynomolgus monkey (cynomolgus/rhesus …, UniProt A0A2K5X523 19-141))
T1 construct: bought reagent; also called Cynomolgus monkey CD47 protein
T1 sequence (A0A2K5X523 entry or part of it limits assumed): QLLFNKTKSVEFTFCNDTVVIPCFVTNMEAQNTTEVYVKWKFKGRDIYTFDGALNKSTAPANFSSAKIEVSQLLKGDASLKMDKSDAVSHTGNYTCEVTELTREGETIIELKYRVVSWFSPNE
Assay: Biacore SPR, 25 C, antibody captured on CM5 chip
parameter-measured: pKd
# pKd is unitless: minus log10 of the molar concentration; print number only

Please review the following examples before continuing.
- binder: "hz3F10-4.2 (antibody, human IgG4 S228P, kappa, V domains shown, humanized 3F10, full-length heavy and light chains) VH: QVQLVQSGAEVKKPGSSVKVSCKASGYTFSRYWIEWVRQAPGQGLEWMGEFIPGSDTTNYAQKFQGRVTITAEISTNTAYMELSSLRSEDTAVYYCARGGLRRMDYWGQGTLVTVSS VL: DIQMTQSPSSLSASVGDRVTITCRASSSVSSTYLHWYQQKPGKAPKLLIYTTSTLASGVPSRFSGSGSGTSYTLTISSLQPEDFATYYCQQFSESTWTFGQGTKLEIKR"
  test-result: 8.73
- binder: "hz3F10-1.1 (antibody, human IgG4 S228P, kappa, V domains shown, humanized 3F10, full-length heavy and light chains) VH: QVQLVQSGAEVKKPGSSVKVSCKASGYTFSRYWIEWVRQAPGQGLEWMGEFIPGSDTTNYAQKFQGRVTITADISTSTAYMELSSLRSEDTAVYYCARGGLRRMDYWGQGTLVTVSS VL: DIQMTQSPSSLSASVGDRVTITCRASSSVSSTYLHWYQQKPGKAPKLLIYTTSTLASGVPSRFSGSGSGTDFTLTISSLQPEDFATYYCQQFSDSTWTFGQGTKLEIKR"
  test-result: 8.88

Query (binder): hz3F10-2.1 (antibody, human IgG4 S228P, kappa, V domains shown, humanized 3F10, full-length heavy and light chains) VH: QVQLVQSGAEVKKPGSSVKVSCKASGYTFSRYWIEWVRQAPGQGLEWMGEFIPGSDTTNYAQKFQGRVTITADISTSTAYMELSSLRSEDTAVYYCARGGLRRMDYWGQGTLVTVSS VL: DIQMTQSPSSLSASVGDRVTITCRASSSVSSTYLHWYQQKPGKAPKLLIYTTSTLASGVPSRFSGSGSGTDFTLTISSLQPEDFATYYCQQFSESTWTFGQGTKLEIKR ; field requested: pKd
8.93
